- testTarget: Cytochrome P450 3A4 (Homo sapiens)
- Sequence (P08684 whole entry): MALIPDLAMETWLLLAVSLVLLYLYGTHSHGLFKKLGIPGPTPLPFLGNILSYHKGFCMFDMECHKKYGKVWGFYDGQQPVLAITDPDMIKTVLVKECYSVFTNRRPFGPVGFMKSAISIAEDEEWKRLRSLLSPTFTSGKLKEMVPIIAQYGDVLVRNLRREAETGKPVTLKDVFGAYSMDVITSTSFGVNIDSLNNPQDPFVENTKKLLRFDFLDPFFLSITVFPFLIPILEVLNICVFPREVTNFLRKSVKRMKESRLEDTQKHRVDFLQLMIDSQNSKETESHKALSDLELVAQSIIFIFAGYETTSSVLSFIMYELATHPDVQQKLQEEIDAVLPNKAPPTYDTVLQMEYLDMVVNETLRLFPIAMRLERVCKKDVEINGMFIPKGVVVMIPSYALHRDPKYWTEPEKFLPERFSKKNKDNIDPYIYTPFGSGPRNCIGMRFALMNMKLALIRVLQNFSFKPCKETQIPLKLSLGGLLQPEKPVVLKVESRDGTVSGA
- method: Inhibition of CYP3A4 (unknown origin) using vivid red as substrate
- Format: ADME
pIC50: −log10 of the molar value.
readoutType: pIC50

{"smilesCode": "Nc1ccccc1NC(=O)c1ccc(CNC2=N[C@@H](c3ccccc3)CS2)cc1", "testTarget": "Cytochrome P450 3A4 (Homo sapiens)", "readoutType": "pIC50", "quantitativeResult": 4.60}

###

- testTarget: Histone deacetylase 2 (Homo sapiens, UniProt Q92769)
- Sequence (Q92769 whole entry): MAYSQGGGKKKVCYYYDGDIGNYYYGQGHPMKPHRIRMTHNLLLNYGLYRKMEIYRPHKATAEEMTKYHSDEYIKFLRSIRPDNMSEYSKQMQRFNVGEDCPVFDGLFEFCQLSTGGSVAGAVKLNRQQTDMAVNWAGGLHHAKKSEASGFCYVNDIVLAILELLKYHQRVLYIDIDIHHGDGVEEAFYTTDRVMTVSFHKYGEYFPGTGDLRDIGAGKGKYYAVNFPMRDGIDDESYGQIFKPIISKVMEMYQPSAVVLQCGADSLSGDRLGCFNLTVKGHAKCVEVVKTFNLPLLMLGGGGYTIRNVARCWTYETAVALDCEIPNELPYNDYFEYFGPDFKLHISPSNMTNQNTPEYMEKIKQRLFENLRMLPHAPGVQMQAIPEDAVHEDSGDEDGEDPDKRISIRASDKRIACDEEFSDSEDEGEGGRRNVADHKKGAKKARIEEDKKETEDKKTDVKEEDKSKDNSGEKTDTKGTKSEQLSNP
- method: Inhibition of recombinant His-tagged HDAC2 (1 to 488) (unknown origin) using MAL as substrate incubated for 3 hrs prior to substrate addition measured after 60 mins by fluorescence plate reader analysis
readoutType: IC50 (µM)

{"smilesCode": "O=C(NO)c1ccc(CNc2nccc(-c3cccnc3)n2)cc1", "quantitativeResult": 0.219}
{"smilesCode": "Nc1ccccc1NC(=O)c1ccc(CN=C2N[C@@H](c3ccccc3)[C@H](c3ccccc3)S2)cc1", "quantitativeResult": 0.538}
{"smilesCode": "Nc1ccccc1NC(=O)c1ccc(CN=C2NC[C@H](c3ccccc3)S2)cc1", "quantitativeResult": 0.081}
{"smilesCode": "Nc1cc(-c2ccccc2)ccc1NC(=O)c1ccc(CNc2nccc(-c3cccnc3)n2)cc1", "quantitativeResult": 16.7}
{"smilesCode": "Nc1ccccc1NC(=O)c1ccc(CN=C2N[C@H](c3ccccc3)CS2)cc1", "quantitativeResult": 0.056}

###

- testTarget: Histone deacetylase 1 (Homo sapiens, UniProt Q13547)
- Sequence (Q13547 whole entry): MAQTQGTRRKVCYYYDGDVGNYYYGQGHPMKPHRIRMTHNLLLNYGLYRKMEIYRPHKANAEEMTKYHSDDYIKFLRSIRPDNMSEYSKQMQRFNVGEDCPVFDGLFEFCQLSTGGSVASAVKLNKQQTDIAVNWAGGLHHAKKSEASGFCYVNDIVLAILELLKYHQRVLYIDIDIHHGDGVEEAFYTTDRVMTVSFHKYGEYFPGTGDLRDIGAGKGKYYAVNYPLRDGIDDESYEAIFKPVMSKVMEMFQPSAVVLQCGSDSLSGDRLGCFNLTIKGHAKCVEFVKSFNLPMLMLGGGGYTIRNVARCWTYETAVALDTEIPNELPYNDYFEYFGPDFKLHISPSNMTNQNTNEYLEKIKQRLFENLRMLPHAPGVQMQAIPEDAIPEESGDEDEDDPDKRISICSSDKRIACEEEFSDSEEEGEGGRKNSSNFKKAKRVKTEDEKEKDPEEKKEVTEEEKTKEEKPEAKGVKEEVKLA
- method: Inhibition of recombinant C-terminal FLAG-tagged HDAC1 (unknown origin) expressed in Escherichia coli BL21 using MAL as substrate incubated for 1 hr prior to substrate addition measured after 60 mins by fluorescence plate reader analysis
pIC50: −log10 of the molar value.
readoutType: pIC50

{"compound": "Nc1ccccc1NC(=O)c1ccc(CNC2=NC(=O)C(c3ccccc3)N2)cc1 (racemic)", "quantitativeResult": 6.46}
{"compound": "Nc1ccccc1NC(=O)c1ccc(CNC2=N[C@@H](c3ccc(O)cc3)CS2)cc1", "quantitativeResult": 6.74}
{"compound": "Nc1ccccc1NC(=O)c1ccc(CNC2=N[C@@H](Cc3ccccc3)CS2)cc1", "quantitativeResult": 6.04}
{"compound": "CC(C)(C)OC(=O)N1C(NCc2ccc(C(=O)Nc3ccccc3N)cc2)=NC(=O)C1Cc1c[nH]c2ccccc12 (racemic)", "quantitativeResult": 6.30}
{"compound": "Nc1ccccc1NC(=O)c1ccc(CN=C2N[C@H](c3ccccc3)CS2)cc1", "quantitativeResult": 6.43}
{"compound": "Nc1ccccc1NC(=O)c1ccc(CNC2=NC(=O)C(Cc3c[nH]c4ccccc34)N2)cc1 (racemic)", "quantitativeResult": 6.72}
{"compound": "Nc1ccccc1NC(=O)c1ccc(CNC2=N[C@@H](c3ccccc3)CS2)cc1", "quantitativeResult": 6.03}
{"compound": "Nc1ccccc1NC(=O)c1ccc(CN=C2NC[C@H](c3ccccc3)S2)cc1", "quantitativeResult": 6.26}
{"compound": "Nc1ccccc1NC(=O)c1ccc(CN=C2N[C@H](Cc3ccccc3)CS2)cc1", "quantitativeResult": 6.39}

###

- testTarget: Protein deacetylase HDAC6 (Homo sapiens)
- Sequence (Q9UBN7 whole entry): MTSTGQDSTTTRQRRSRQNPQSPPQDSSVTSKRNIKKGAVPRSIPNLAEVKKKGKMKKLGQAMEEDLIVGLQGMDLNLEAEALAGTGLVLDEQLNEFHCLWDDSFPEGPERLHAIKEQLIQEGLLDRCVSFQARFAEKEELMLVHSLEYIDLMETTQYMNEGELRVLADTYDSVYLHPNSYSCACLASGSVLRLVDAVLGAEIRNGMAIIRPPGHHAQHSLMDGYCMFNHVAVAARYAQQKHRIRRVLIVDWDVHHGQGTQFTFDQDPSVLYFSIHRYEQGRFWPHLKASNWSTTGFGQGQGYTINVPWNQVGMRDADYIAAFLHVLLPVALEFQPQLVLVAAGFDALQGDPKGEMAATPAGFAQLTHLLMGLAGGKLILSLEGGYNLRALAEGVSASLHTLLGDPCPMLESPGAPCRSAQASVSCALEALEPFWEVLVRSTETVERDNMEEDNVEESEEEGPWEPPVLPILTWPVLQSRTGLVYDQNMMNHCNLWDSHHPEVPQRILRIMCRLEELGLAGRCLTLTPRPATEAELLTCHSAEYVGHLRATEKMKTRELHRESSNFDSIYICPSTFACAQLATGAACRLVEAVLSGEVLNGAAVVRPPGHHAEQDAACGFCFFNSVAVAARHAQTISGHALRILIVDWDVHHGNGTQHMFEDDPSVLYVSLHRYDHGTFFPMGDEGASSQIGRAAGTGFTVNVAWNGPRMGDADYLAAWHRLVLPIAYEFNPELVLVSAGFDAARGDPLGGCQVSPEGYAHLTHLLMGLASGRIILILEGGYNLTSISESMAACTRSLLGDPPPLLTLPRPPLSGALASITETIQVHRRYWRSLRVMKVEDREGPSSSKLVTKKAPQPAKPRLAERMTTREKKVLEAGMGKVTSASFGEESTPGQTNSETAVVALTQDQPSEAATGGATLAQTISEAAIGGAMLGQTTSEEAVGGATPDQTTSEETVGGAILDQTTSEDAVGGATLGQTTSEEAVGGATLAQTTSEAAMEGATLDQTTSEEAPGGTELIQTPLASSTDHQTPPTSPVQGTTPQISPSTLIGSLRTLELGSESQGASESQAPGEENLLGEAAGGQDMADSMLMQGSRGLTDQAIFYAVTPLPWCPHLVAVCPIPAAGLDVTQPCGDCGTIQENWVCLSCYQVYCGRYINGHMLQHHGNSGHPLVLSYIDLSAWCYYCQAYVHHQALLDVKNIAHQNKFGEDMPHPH
- method: Inhibition of recombinant His-tagged HDAC6 (unknown origin) using Fluor-de-Lys SIRT1 as substrate incubated for 3 hrs prior to substrate addition measured after 60 mins by fluorescence plate reader analysis
pIC50: −log10 of the molar value.
Each record here notes measured pIC50.
readoutType: pIC50

{"compound": "Nc1ccccc1NC(=O)c1ccc(CNC2=N[C@@H](Cc3ccccc3)CS2)cc1", "testTarget": "Protein deacetylase HDAC6 (Homo sapiens)", "readoutType": "pIC50", "result": "< 4.70"}
{"compound": "Nc1ccccc1NC(=O)c1ccc(CNC2=NC(=O)C(Cc3c[nH]c4ccccc34)N2)cc1 (racemic)", "testTarget": "Protein deacetylase HDAC6 (Homo sapiens)", "readoutType": "pIC50", "result": "< 4.70"}
{"compound": "Nc1ccccc1NC(=O)c1ccc(CNC2=NC(=O)C(c3ccccc3)N2)cc1 (racemic)", "testTarget": "Protein deacetylase HDAC6 (Homo sapiens)", "readoutType": "pIC50", "result": "< 4.70"}
{"compound": "Nc1ccccc1NC(=O)c1ccc(CSC2=N[C@@H](Cc3ccccc3)CS2)cc1", "testTarget": "Protein deacetylase HDAC6 (Homo sapiens)", "readoutType": "pIC50", "result": "< 4.70"}
{"compound": "O=C(NO)c1ccc(CNc2nccc(-c3cccnc3)n2)cc1", "testTarget": "Protein deacetylase HDAC6 (Homo sapiens)", "readoutType": "pIC50", "result": 7.38}
